The measurements presented in this section are drawn from ChEMBL document CHEMBL3616466.

tested on: HL-60; experiment: Photocytotoxicity against human HL60 cells assessed as growth inhibition at 1.25 J/cm'2 irradiation for 30 mins followed by drug treated for 72 hrs by MTT assay; format: functional; settings: HL-60, light or radiation study
Provide the reported GI50 of each item.

Q: Need GI50, item `CCOC(=O)c1cc2c(n(C)c1=O)-c1cnn(-c3ccc(Cl)cc3)c1CC2`
Ans: > 20 µM

Q: Please give the measured GI50 for this compound: `Cn1c2c(cc(S(=O)(=O)c3ccccc3)c1=O)CCc1c-2cnn1Cc1ccccc1`
Ans: > 20 µM

Q: Quick one: GI50 for `Cn1c2c(cc(S(=O)(=O)c3ccccc3)c1=O)CCc1c-2cnn1-c1ccccc1` ?
Ans: > 20 µM

###

system: HL-60; experiment: Cytotoxicity against human HL60 cells assessed as growth inhibition after 72 hrs by MTT assay; type: functional; conditions: HL-60, 72 h
Please provide measured GI50 for the entries that follow.

Q: Identify the measured GI50 of `COc1ccc(-n2ncc3c4nc(OC)c(S(=O)(=O)c5ccccc5)cc4ccc32)cc1` for HL-60.
Ans: > 20 µM

Q: # get_value(readout= GI50, system= HL-60) for `COc1ccc(-n2ncc3c4[nH]c(=O)c(S(=O)(=O)c5ccccc5)cc4ccc32)cc1`
Ans: > 20 µM

Q: Give recorded GI50 with HL-60 for the following compound: `COc1nc2c(ccc3c2cnn3-c2ccc(Cl)cc2)cc1S(=O)(=O)c1ccccc1`
Ans: > 20 µM

Q: Requested read-out GI50, target or system HL-60, entry `COc1nc2c(cc1S(=O)(=O)c1ccccc1)CCc1c-2cnn1-c1ccccc1Cl`
Ans: 7.17 µM

Q: Any idea what GI50 came out for `O=c1[nH]c2c(cc1S(=O)(=O)c1ccccc1)CCc1c-2cnn1-c1ccccc1` on HL-60?
Ans: > 20 µM

Q: API: value(readout=GI50, system=HL-60) for record `COc1ccc(-n2ncc3c2ccc2cc(S(=O)(=O)c4ccccc4)c(=O)n(C)c23)cc1`
Ans: > 20 µM

Q: Provide value of GI50 for this record tested with HL-60: `COc1ccc(-n2ncc3c2CCc2cc(S(=O)(=O)c4ccccc4)c(=O)[nH]c2-3)cc1`
Ans: > 20 µM

Q: Tell me reported GI50 for `O=c1[nH]c2c(ccc3c2cnn3-c2ccc(Cl)cc2)cc1S(=O)(=O)c1ccccc1` , tested with HL-60.
Ans: > 20 µM

Q: Entry `Cn1c2c(cc(S(=O)(=O)c3ccccc3)c1=O)CCc1c-2cnn1-c1cccc(Cl)c1` , system HL-60: what GI50 was measured?
Ans: > 20 µM
